Origin of measurements: PubChem BioAssay AID850

Tested on: Saccharomyces cerevisiae growth inhibition, permissive control
Assay: yeast lifespan-shortening chemical project counter-assay, dose-response inhibition of growth under permissive conditions (AID 850);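 also: growth read as optical density after one day of incubation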
Calls of active or inactive are those of the source. No rule for the calls is given here.
IC50 for assorted compounds

{"Compound": "CCc1cc(-c2n[nH]c(C)c2Oc2ccc(C(C)C)cc2)c(O)cc1O", "Property": "IC50", "Experimental value": "35 µM"}
{"Compound": "Cc1ccc(-n2c(Cl)c(Cl)nc(Cl)c2=O)cc1", "Property": "IC50", "Experimental value": "14 µM"}
{"Compound": "CCn1c2ccccc2c2cc(Nc3cc(C)nc4ncnn34)ccc21", "Property": "IC50", "Experimental value": "> 100 µM (inactive)"}
{"Compound": "CCOc1cc(N2CCOCC2)c(OCC)cc1NC(=O)COc1cccc2cccnc12", "Property": "IC50", "Experimental value": "> 100 µM (inactive)"}
{"Compound": "CCCn1c(C)cc(C(=O)COC(=O)c2ccc[nH]c2=O)c1C", "Property": "IC50", "Experimental value": "> 100 µM (inactive)"}
{"Compound": "Cc1cccc(N=C2Sc3nc4c(C)c(C)ccc4cc3CN2CCN2CCOCC2)c1", "Property": "IC50", "Experimental value": "45.1 µM"}

[Q] For O=C(OCn1ncc(Br)c(Br)c1=O)c1ccccc1Cl , what is its reported IC50?
[A] > 100 µM (inactive)

[Q] // query IC50 value for entry CC(=O)NC(c1cccs1)c1cc([N+](=O)[O-])c2cccnc2c1O (stereo unspecified)
[A] > 100 µM (inactive)

[Q] Report IC50 for Cc1cccc(C(=O)NC(=S)NNC(=O)c2cccs2)c1 please.
[A] 19.9 µM

[Q] Param item = COc1ccc2c(c1)c1nnc(SC)nc1n2C ; retrieve measured IC50.
[A] 48.3 µM

[Q] Reported IC50, compound O=C1CCCC/C1=N\Nc1ccc(OCc2ccccc2)cc1 : ____
[A] 29.7 µM

* * *

Test: yeast lifespan-shortening chemical project counter-assay, dose-response inhibition of growth under permissive conditions (AID 850);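 also: growth read as optical density after one day of incubation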
Conditions: Saccharomyces cerevisiae growth inhibition, permissive control; measured here: maximum growth inhibition; at 12.5 µM; stronger effect = higher value
Class assignment keyed on inhibition, ranges low = under 20%, middle = from 20% up to 30%, high = 30% and over

{"Compound": "O=C(CCc1ccccc1)NNC(=S)NC(=O)c1ccccc1", "Class name": "middle"}
{"Compound": "O=C(O)CCn1cc(/C=C/C(=O)c2ccc(Cl)cc2)c(-c2ccc(Br)cc2)n1", "Class name": "low"}

[Q] Where would N/C(Cc1ccc(Cl)cc1Cl)=N\OC(=O)c1cccs1 land among the classes by reported inhibition?
[A] high

* * *

Test system: Saccharomyces cerevisiae growth inhibition, permissive control
Assay: yeast lifespan-shortening chemical project counter-assay, dose-response inhibition of growth under permissive conditions (AID 850);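 also: growth read as optical density after one day of incubation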
Activity calls are given as the source filed them. How the calls were made is not given here.
Your response should consist of one outcome taken from y (active), n (inactive)

Reference set, count: 5
{"Molecule": "N=c1n(CCN2CCOCC2)c2ccccc2n1CC(=O)c1ccc(Cl)c(Cl)c1", "Class name": "y"}
{"Molecule": "COc1ccc(OC)c(CCNC(=O)Cn2sc3nc(C)cc(C)c3c2=O)c1", "Class name": "n"}
{"Molecule": "Brc1ccccc1-c1nnc(CSc2nnc3sc4ccccc4n23)o1", "Class name": "n"}
{"Molecule": "COc1cccc(-n2nnnc2S(C)(=O)=O)c1", "Class name": "y"}
{"Molecule": "C/C(=N\\NC(=O)c1ccc(CSc2cccc3cccnc23)cc1)C1CCCCC1", "Class name": "y"}

[Q] # fetch the recorded call for CC1(C)C(C=C(Cl)Cl)C1C(=O)Nc1ccc([N+](=O)[O-])cc1 (stereo unspecified) here
[A] n

[Q] // return assay outcome for Cc1cc(C)nc(/N=c2/ssnc2Cl)c1
[A] n

[Q] Per the records of this test, what outcome belongs to Oc1ccc(Cl)cc1Cc1cc(Cl)ccc1O ?
[A] y

[Q] What outcome does the record of this test show for O=C(O)c1cc2ccc3ccccc3c2oc1=O ?
[A] y

[Q] Please let me know the test result on file for Cc1nc2c(c(C)c1C#N)C(=O)c1ccccc1-2 .
[A] n

[Q] What outcome does the record of this test show for COC1=C(N)C(=O)c2nc(-c3nc(C(=O)O)c(C)c(-c4ccc(OC)c(OC)c4O)c3N)ccc2C1=O ?
[A] y

* * *

Experiment: yeast lifespan-shortening chemical project counter-assay, dose-response inhibition of growth under permissive conditions (AID 850);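 also: growth read as optical density after one day of incubation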
Conditions: Saccharomyces cerevisiae growth inhibition, permissive control; measured here: maximum growth inhibition; at 12.5 µM; stronger effect = higher value
Recorded measurements of inhibition, one per entry
Numbers only; they are read as %.

{"Compound": "Cc1cc(Cl)ccc1N=c1ssnc1Cl", "inhibition, %": 14}

[Q] What does the record list as inhibition for CN(O)/C=c1/ccc2c(n1)C(=O)C=CC=2 ?
[A] 98

[Q] Which inhibition value belongs to COc1ccc(-c2cc(C(=O)N3CCN(c4ncccn4)CC3)c3ccccc3n2)c(OC)c1 ?
[A] 23.4

[Q] So what's the measured inhibition for this one? N#CSCC(=O)c1cccc2ccccc12
[A] 26.9

* * *

Tested on: Saccharomyces cerevisiae growth inhibition, permissive control
Test: yeast lifespan-shortening chemical project counter-assay, dose-response inhibition of growth under permissive conditions (AID 850);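 also: growth read as optical density after one day of incubation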
The source made the active and inactive calls. How the calls were made is not given here.
In this exercise, the only acceptable responses are label 1 = active, label 0 = inactive

Consider the following illustrative entries.
{"Compound": "COc1ccc(-c2nncnn2)cc1", "Assay target": "Saccharomyces cerevisiae growth inhibition, permissive control", "Class name": "label 1"}
{"Compound": "Clc1ccc(COC(Cn2ccnc2)c2ccc(Cl)cc2Cl)c(Cl)c1 (configuration not stated)", "Assay target": "Saccharomyces cerevisiae growth inhibition, permissive control", "Class name": "label 1"}
{"Compound": "O=C(ONC1=NCCCCC1)c1ccc(Cl)cc1", "Assay target": "Saccharomyces cerevisiae growth inhibition, permissive control", "Class name": "label 1"}
{"Compound": "NNC(=O)c1cccc(COc2ccc3c(c2)CCC3)c1", "Assay target": "Saccharomyces cerevisiae growth inhibition, permissive control", "Class name": "label 1"}
{"Compound": "CCC1C(=O)N=C(SCC(=O)Nc2ccccc2)NC1=O (configuration not stated)", "Assay target": "Saccharomyces cerevisiae growth inhibition, permissive control", "Class name": "label 1"}
{"Compound": "Cn1c(C(C#N)C(=O)c2ccco2)nc2ccccc21 (configuration not stated)", "Assay target": "Saccharomyces cerevisiae growth inhibition, permissive control", "Class name": "label 0"}
{"Compound": "CC(NC(=O)/C(C#N)=C/c1ccc(Cl)c([N+](=O)[O-])c1)c1ccccc1 (configuration not stated)", "Assay target": "Saccharomyces cerevisiae growth inhibition, permissive control", "Class name": "label 0"}
{"Compound": "O=C(O)c1ccc2c3c(ncnc13)-c1ccccc1C2=O", "Assay target": "Saccharomyces cerevisiae growth inhibition, permissive control", "Class name": "label 1"}

[Q] Called result for COc1ccc(/C(C)=N/NC(=O)c2ccc(CSc3cccc4cccnc34)cc2)cc1OC
[A] label 0

[Q] Kindly provide the recorded test outcome for the following compound: CCCc1ccc(OCC(=O)NNC(=S)NC(=O)c2ccco2)cc1
[A] label 1

[Q] Hey, what did the test say about C/C(=N\Nc1ccc(Cl)cc1)c1ccccn1 ?
[A] label 1

[Q] Hi, do you know how CCCCn1c(/N=C/c2c[nH]c3ccccc23)nc2ccccc21 came out in this test?
[A] label 0

* * *

Test system: Saccharomyces cerevisiae growth inhibition, permissive control
Experiment: yeast lifespan-shortening chemical project counter-assay, dose-response inhibition of growth under permissive conditions (AID 850);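 also: growth read as optical density after one day of incubation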
The source made the active and inactive calls. How the calls were made is not given here.
Outcomes you can answer with include only these: 1 = active, -1 = inactive

[Q] In this assay, the call recorded for O=c1[nH]c2ccccc2c2nc3ccccn3c12 was what?
[A] -1

[Q] Each compound tested received a call. Report the one for COc1ccc(NCc2nc3ccccc3n2CCOc2ccc(C)cc2)cc1 .
[A] 1

[Q] Fill in: this test's call for Cc1sc2ncnc(N/N=C/c3ccccc3O)c2c1C is ___
[A] 1

* * *

Test system: Saccharomyces cerevisiae growth inhibition, permissive control
Assay: yeast lifespan-shortening chemical project counter-assay, dose-response inhibition of growth under permissive conditions (AID 850);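 also: growth read as optical density after one day of incubation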
The source made the active and inactive calls. How the calls were made is not given here.
A correct response names exactly one class from true (1) (active), false (0) (inactive)

[Q] Write down the call the test reported for this compound. Item: S=C(NCC1CCCCC1)Nc1ccc(Oc2ccccc2)cc1
[A] false (0)

[Q] Please share the test call associated with CSC1=NSC2=NC(=O)/C(=C/c3coc4ccccc4c3=O)C(=N)N12 .
[A] false (0)

[Q] Identify the outcome logged in this assay for the compound shown: CNC(=O)Oc1cccc(-c2cn3cc(OC(=O)NC)ccc3n2)c1
[A] true (1)

[Q] Assay outcome for CC(NC(=O)Nc1ccc(Cl)cc1)C(c1cccs1)N1CCOCC1 (configuration not stated) : what was it?
[A] false (0)

[Q] For Oc1ccc(/C=N/N=C(c2ccccc2)c2ccccc2)c(O)c1O , what call appears in the results of this test?
[A] true (1)

[Q] # outcome recorded in this test, key = CC(C)C(=O)NC(c1ccccc1)c1cc([N+](=O)[O-])c2cccnc2c1O (configuration not stated)
[A] true (1)
